Cited source: the RNAGym collection of RNA variant scans (doi:10.7554/elife.90254)

B1: LINE1-full (parent)
chain: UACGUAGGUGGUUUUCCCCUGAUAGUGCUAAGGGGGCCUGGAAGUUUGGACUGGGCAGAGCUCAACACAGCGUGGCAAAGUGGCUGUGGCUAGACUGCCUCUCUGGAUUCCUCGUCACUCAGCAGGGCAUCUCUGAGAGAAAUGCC

# Variants of: B1
# Experiment Summary: self-cleavage, relative activity (ratio to wild type); higher = more cleavage; in vitro, sequencing; the parent is a self-cleaving ribozyme
Assign class by self-cleavage: not lower than 1 means yes; lower than 1 means no.

Primary Sequence	Category Label
UACGUAGGUGGUUUUCCCCUGAUAGUGCUAAGGGGGCCUGGAAGUUUGAACUGGGCAGAGCUCAACACAGCGUGGCAAAGUGGCUGUGGCUAGACUGCCCCUCUGGAUUCCUCGUCACUCAGCAGGGCAUCUCUGAGAGAAAUGCC [G49A U100C]	yes
UACGUAGGUGGUUUUCCCCUGAUAGUGCUAAGGGGGCCUGGAAGUUUGGACUGGGCAGAGCUCAACACAGCGUGGCAAAGUGGCUGUGGCUUGGCUGCCUCUCUGGAUUCCUCGUCACUCAGCAGGGCAUCUCUGAGAGAAAUGCC [A92U A94G]	no
UAGGUAGGUGGUUUUCCCCUGAUAGUGCUUAGGGGGCCUGGAAGUUUGGACUGGGCAGAGCUCAACACAGCGUGGCAAAGUGGCUGUGGCUAGACUGCCUCUCUGGAUUCCUCGUCACUCAGCAGGGCAUCUCUGAGAGAAAUGCC [C3G A30U]	no
UACGUAGGUGGUUUUCCCCUGAUAGUGCUAAGGGGGCCUGGAAGUUUGGACUGGGCAGAGCUCAACACAGCGUGGCAAAGUGGCUGUGGCUAGACUGCCUCUCUGGAUUCCUCGUCACUCUGCAGGGCAUCUCUGAGAGAAACGCC [A121U U143C]	yes

Alright, here's another variant for you.
For this variant, is measured self-cleavage 1 or higher? UACGUAGGUGGUUUUCCCCUGAUAGUGCUAAGGGGGCCUGGAAGUUUGGACUGGGCAGAGCUCAACACAGCGUGGCAAAGUGGCUGUGGCUAGACUGCCUCUCCGGAUUCCUCGUCACUCAGCAGGGCUUCUCUGAGAGAAAUGCC [U104C A129U]
yes
